test system: Escherichia coli; conditions: Concentration 32 ug.mL-1;; ASSAY_TEST Inhibition of Bacterial Growth; detection method Absorption (OD600); MEDIA CAMHB; plate type 384well; NBS; CORNING #3640; time 18 hr
Description: Antibacterial activity against Escherichia coli ATCC 25922 (CO-ADD:GN_001); MIC in CAMBH media using NBS plates, by OD(600)
Potency and affinity values are given separately.
observable: Inhibition (%)
The reply should contain only the number, in %.

Given the entry CCc1nnc2c(S(=O)(=O)N(Cc3ccc(F)cc3)c3cccc(Cl)c3)cccn12 , report its measured Inhibition.
-8.07

Would you mind telling me what Inhibition value was observed for Cn1c(=O)c2ccc(C(=O)NC3CCCCC3)cc2n2c(=O)n(Cc3cccc(C(F)(F)F)c3)nc12 ?
-0.17

Query: Inhibition; subject: COc1cccc(-n2ccn3c(SCC(=O)NCc4ccc(Cl)cc4)nnc3c2=O)c1
-3.71

Item Cc1cc(C)cc(N(Cc2cc(C)ccc2C)S(=O)(=O)c2cccn3c(C)nnc23)c1 has what recorded Inhibition?
-2.32

What value of measured Inhibition is listed for O=S(=O)(c1cccn2cnnc12)N(Cc1ccc(F)cc1)c1ccc(F)c(F)c1 ?
-1.75

May I ask what Inhibition has been recorded for CCc1nnc2c(SCC(=O)Nc3ccc(C)cc3Cl)nc3ccccc3n12 ?
2.69

Form field: reported Inhibition of Cc1cccc(Oc2nc3ccccc3n3c(=O)n(CC(=O)Nc4cccc(C#N)c4)nc23)c1C
-5.56

Name the recorded Inhibition for O=S(=O)(c1ccc2nncn2c1)N(Cc1cc(F)cc(F)c1)c1cc(F)cc(F)c1 .
-4.65

Suppose we examine the molecule Cc1ccc(Sc2nccn3c(=O)n(CC(=O)N4CCN(c5ccccc5F)CC4)nc23)c(C)c1 ; what Inhibition value has been reported?
-4.29

* * *

test system: Staphylococcus aureus; conditions: Concentration 32 ug.mL-1;; ASSAY_TEST Inhibition of Bacterial Growth; detection method Absorption (OD600); MEDIA CAMHB; plate type 384well; NBS; CORNING #3640; time 18 hr
Description: Antibacterial activity against Staphylococcus aureus MRSA ATCC 43300 (CO-ADD:GP_020); MIC in CAMBH media, using NBS plates, by OD(600)
Measured potencies and affinities stand elsewhere.
Would you mind telling me the reported Inhibition of each entry?
// note: answer is a bare numeric in %

Can you look up the measured Inhibition of CC(C)(C)Sc1ccc2nn(CC(=O)Nc3ccccc3C(F)(F)F)c(=O)n2n1 for me?
6.28

Return reported Inhibition; argument: CC(=O)c1ccc(NC(=O)Cn2nc3ccc(-c4ccc(C)c(C)c4)nn3c2=O)cc1
9.12

Quick one: Inhibition of CCCCc1ccc(NC(=O)Cn2nc3c(N4CCN(c5ccccc5C)CC4)nccn3c2=O)cc1 ?
0.53

So what's the measured Inhibition for this one? COc1ccc(C(=O)CSc2nnc3c(=O)n(-c4cccc(OC)c4)ccn23)cc1
14.49

What does the data say about its Inhibition? Entry: Cc1oc(-c2ccccc2)nc1CSc1nc2ccccc2n2c(C)nnc12
4.04

Which Inhibition is reported for this compound? Cc1cccc(N(Cc2ccccc2F)S(=O)(=O)c2ccc3nncn3c2)c1
-3.86

Endpoint output: Inhibition of CCOC(=O)c1cccc(NC(=O)Cn2nc3c4cc(-c5ccc(C)c(C)c5)nn4ccn3c2=O)c1 . Value?
-12.42

# lookup: Inhibition of COc1ccc(NC(=O)CSc2nnc3ccc(C(=O)Nc4cccc(F)c4)cn23)cc1
8.78

GET /values?readout=Inhibition&item= Cc1cc(C)cc(N(Cc2ccc(F)cc2)S(=O)(=O)c2cccn3cnnc23)c1
-4.06

Query: Inhibition; subject: COc1ccc(-c2cc3c4nnc(SCC(=O)N(C)c5ccccc5)n4ccn3n2)cc1
-6.7

Suppose we examine the compound COc1ccc(C)cc1NC(=O)CSc1nc2ccccc2n2cnnc12 ; what Inhibition value has been reported?
16.59

For CCOc1ccc(-n2ccn3c(SC(C)C(=O)Nc4ccc(OC)cc4)nnc3c2=O)cc1 (stereo not given) , what is its reported Inhibition?
5.98

# query: Inhibition of entry CCCCN(CC)C(=O)CSc1nnc2c(=O)n(Cc3ccccc3F)ccn12
1.71

Need Inhibition, item CCc1nnc2ccc(S(=O)(=O)N(Cc3ccc(OC)cc3)c3cccc(F)c3)cn12
-1.45

Request the reported Inhibition associated with CC(=O)c1ccc(N2CCN(C(=O)CCc3nnc4c5cc(-c6ccccc6)nn5ccn34)CC2)cc1
11.68

Find the recorded Inhibition belonging to CCCCN(C)c1ccc2nnc(CCc3nc(-c4ccc(C(F)(F)F)cc4)no3)n2n1 and report it.
7.8

Need Inhibition of CCc1ccc(NC(=O)Cn2nc3n(Cc4cccs4)c(=O)c4sccc4n3c2=O)cc1 , thanks.
-0.38

Can you share its Inhibition? I mean this compound: Cc1ccc(-n2ccn3c(=O)n(Cc4ccc(F)cc4)nc3c2=O)cc1C
10.94

For Cc1ccc(Oc2nccn3c(=O)n(CC(=O)Nc4ccc(C)cc4Cl)nc23)cc1 , what is its reported Inhibition?
6.09

So what's the measured Inhibition for this one? O=S(=O)(c1ccc2nncn2c1)N(Cc1ccccc1F)c1ccc(F)c(F)c1
-7.25

Consider the compound CCc1ccccc1Sc1nccn2c(=O)n(CC(=O)Nc3ccc(C)cc3C)nc12 and give its measured Inhibition.
10.48

Fill in: Inhibition of CSc1ccc(CNC(=O)CCc2nnc3c(N4CCCCC4)nc4ccccc4n23)cc1 is ___
14.53

Requested field: Inhibition. Item: O=c1c2sccc2n2c(=O)n(Cc3cccc(F)c3)nc2n1Cc1cccs1
-6.6

For the compound shown here, COc1ccccc1Cn1c(=O)c2sccc2n2c(=O)n(Cc3cccc(C)c3)nc12 , give the reported Inhibition.
10.55

// query Inhibition value for entry Cc1cc(C)cc(N(Cc2c(F)cccc2Cl)S(=O)(=O)c2cccn3cnnc23)c1
4.69

Requested read-out: Inhibition. Entry: Cc1ccc(CSc2nnc3c(=O)n(-c4ccc(Br)cc4)ccn23)cc1
13.68

Query: Inhibition; subject: COc1ccc2[nH]cc(C(=O)CSc3nnc4c(=O)n(-c5ccc(F)cc5)ccn34)c2c1
14.61

Find the recorded Inhibition belonging to O=C(CSc1nnc2c(=O)n(-c3ccccc3)ccn12)Nc1ccc(F)cc1 and report it.
5.78

For the compound shown here, Cc1ccc(NC(=O)Cn2nc3c(SC4CCCCC4)nccn3c2=O)cc1F , give the reported Inhibition.
10.42

Sample Cc1cc(C)c(NC(=O)Cn2c(=O)c3nnc(C(C)C)n3c3ccccc32)c(C)c1 — what was its Inhibition?
15.71

Returns the measured Inhibition for the input compound. Input: CCOc1ccc(C(=O)CSc2nnc3c(=O)n(-c4ccc(Br)cc4)ccn23)cc1
15.75

Record request: Inhibition value, item Cc1ccc(-c2cc3c4nn(CC(=O)Nc5cccc(Br)c5)c(=O)n4ccn3n2)cc1
8.15

Looking for the measured Inhibition of Cc1ccc(Oc2nccn3c(=O)n(CC(=O)Nc4ccccc4C(F)(F)F)nc23)cc1 , can you help?
6.18

So what's the measured Inhibition for this one? O=C(Cn1nc2c(Oc3ccccc3)nccn2c1=O)Nc1ccc2c(c1)OCO2
2.59

Fill in the blank: the reported Inhibition of COc1ccc(CNC(=O)Cn2nc3c(Sc4ccc(C)cc4C)nccn3c2=O)cc1 is ____.
6.57

Record request: Inhibition value, item COc1ccc(CN(c2ccc(OC)cc2)S(=O)(=O)c2ccc3nnc(C)n3c2)cc1
4.23

// query Inhibition value for entry CCCCOc1ccc(-c2cc3c4nnc(SCC(=O)Nc5ccc(C)c(C)c5)n4ccn3n2)cc1
10.66

Param item = CCOc1ccc(-n2ccn3c(SC(CC)C(=O)Nc4ccc(C(C)C)cc4)nnc3c2=O)cc1 (stereo not given) ; retrieve measured Inhibition.
5.33

Item COc1cccc(-n2ccn3c(SC(C)C(=O)c4ccc(C)c(C)c4)nnc3c2=O)c1 (stereo not given) has what recorded Inhibition?
13.98

Give its Inhibition value. Item: O=S(=O)(c1ccc2nncn2c1)N(Cc1ccc(Cl)cc1)c1ccc2c(c1)OCO2
11.62
